Provenance of the data: ChEMBL document CHEMBL1201862

Assign GI50 to each entry below.
- Test system: SK-MEL-28
- PROTOCOL NOTES: NCI tumour cell line growth inhibition, 48 h
The source made the active and inactive calls. Rule as the data show it: active = GI50 up to about 1.1 µM and inactive = higher.

Some compounds with recorded GI50:
| COMPOUND | GI50 |
| --- | --- |
| CCCCCCCCCCCCCCCCCCNc1ccn(C2OC(CO)C(O)C2O)c(=O)n1 (centres undefined) | > 100 µM (inactive) |
| Cc1nc(O)c(Cc2ccccc2O)c(-c2ccccc2)n1 | > 100 µM (inactive) |
| Clc1ccccc1C(c1ccccc1)(c1ccccc1)n1ccnc1 | 16.2 µM (inactive) |
| COc1ccc(S(=O)(=O)n2c3c(c4ccccc42)[C@@H]2[C@@H](CCCN2C(=O)C[S+]([O-])c2ccc(C)cc2)[C@H](Cl)C3)cc1 (some centres undefined) | > 100 µM (inactive) |
| CCCc1c(OC)c(=O)c2c(OC)cc(OC)c3c4c(OC)cc(OC)c5c(=O)c(OC)c(CCC)c(c1c23)c54 | 13.4 µM (inactive) |
| COC(=O)c1c(C)[n+]([O-])c2cc(Cl)c(Cl)cc2[n+]1[O-] | 27.4 µM (inactive) |
| O=C(N/C(=C\c1ccc(F)cc1)c1nc2ccccc2[nH]1)c1ccccc1 | > 100 µM (inactive) |
| Cc1[nH]c2ccccc2c1-c1n[nH]c(=O)c2ccccc12 | 26.5 µM (inactive) |

Kindly consider the entry below.
Per the record, CC(C)(C)NCC(COc1ccc([N+](=O)[O-])cc1)OP(c1ccccc1)c1ccccc1 (centres undefined) has GI50 of 55 µM (inactive)

---

- Test system: RXF 393
- PROTOCOL NOTES: NCI tumour cell line growth inhibition, 48 h
The source made the active and inactive calls. Rule as the data show it: active = GI50 up to about 1.1 µM and inactive = higher.
READOUT: GI50

Solved entries (count: 5):
| COMPOUND | RESULT VALUE |
| --- | --- |
| Cc1ccc(/N=N/NCCCCN/N=N/c2ccc(C)cc2)cc1 | > 100 µM (inactive) |
| COc1ccc(N2C(=O)C3c4[nH]c5cc(Cl)ccc5c4C4CCC(C(C)(C)C)CC4C3C2=O)cc1 (stereo unspecified) | > 100 µM (inactive) |
| O=C(CCc1ccccc1)NS(=O)(=O)c1ccccc1 | > 100 µM (inactive) |
| CCCCCC(=O)Nc1[nH]nnc1C#N | > 100 µM (inactive) |
| CCN(CC)/C(Cl)=C(Cl)\C(=C1\Nc2ccc(OC)cc21)[N+](=O)[O-] | 15.7 µM (inactive) |

We next turn to a different compound, shown below.
What the record says about CN(C)S(=O)(=O)Nc1nnc(S(N)(=O)=O)s1 : GI50 is > 100 µM (inactive)

---

- Tested on: SR
- PROTOCOL NOTES: NCI tumour cell line growth inhibition, 48 h
The source made the active and inactive calls. Rule as the data show it: active = GI50 up to about 1.1 µM and inactive = higher.
Your reply should match one of these outcome classes. 1 (active), 0 (inactive)

| COMPOUND | ASSIGNED CLASS |
| --- | --- |
| O=C1CCCCC1CN1CCCCC1 (stereo not given) | 0 |
| C=C(C)C(=O)O[C@H]1CC2(CO)O[C@@H]2CC/C(COC(C)=O)=C/C2OC(=O)C(=C)[C@@H]21 (stereo not given in full) | 0 |
| CC(CO)CCNc1ncnc2c1ncn2CCC#N (stereo not given) | 0 |
| Cc1ccc(S(=O)(=O)N2CCCSCCSCCCSCC2)cc1 | 0 |
| Cc1ccc(/N=N/c2c(C)nn(-c3ccccc3)c2-c2ccccc2)c(Br)c1 | 0 |
| O=C(Nn1c(-c2ccccc2)nc2ccccc2c1=O)c1cccc([N+](=O)[O-])c1 | 0 |

Q) How was CCCCCCCCCCCCCCCCCC(=O)NCC(COP(=O)([O-])OCC[N+](C)(C)C)OC (stereo not given) classified in this test?
A) 0

Q) # lookup: test call for N=c1oc2ccccc2cc1C(=O)Nc1nccs1
A) 0

Q) Called result for [O-][S+]1Nc2cccc(C(F)(F)F)c2S1 (stereo not given)
A) 0

Q) What was the test verdict on NC(Cc1c[nH]c2ccccc12)P(=O)(O)O (stereo not given) ?
A) 0

Q) Test call, this compound: CC(C)(C)OC(=O)NCC(=O)N1CCN(C(=O)CNC(=O)OC(C)(C)C)CC1
A) 0

Q) Name the outcome recorded for CCOC(=O)N[C@H]1CCc2cc(OC)c(OC)c(OC)c2-c2ccc(SC)c(=O)cc21 in the assay.
A) 1
